system: BT-549 breast; test: NCI-60 one-dose screen, 48 h (100 = growth as untreated, 0 = no growth, -100 = all killed); details: 10 µM unless noted
The panel holds about 83,000 compounds, 20% with a hit somewhere; the sample as a whole holds those more often. Active and inactive are the calls of the source. The calls were made as follows: active = growth percent below 10; inactive = the rest.
Attribute: growth
readout-name: growth

>>> reported_measurement("NCCCN1CCCC1=O")
"110% (inactive)"
>>> reported_measurement("COc1ccc(C(=O)C(=O)c2ccccc2)cc1")
"112% (inactive)"
>>> reported_measurement("Cn1c(=O)c2nc3c(=O)n(C)c(=O)n(C)c3nc2n(C)c1=O")
"100% (inactive)"
>>> reported_measurement("OCc1cccnc1")
"106% (inactive)"
>>> reported_measurement("C=CC1=NC(C)(C)CC(C)O1 (configuration not stated)")
"109% (inactive)"
>>> reported_measurement("COc1cc(OC)c(NC(=O)C(Sc2nc(C)cc(C)c2C#N)c2ccccc2)cc1Cl (configuration not stated)")
"81.7% (inactive)"
>>> reported_measurement("COc1c(CNC(=O)CCl)cc2[nH]c(C)cc2c1CNC(=O)CCl")
"58.9% (inactive)"
>>> reported_measurement("CCOC(C=O)OCC")
"103% (inactive)"
>>> reported_measurement("C=CC(C)(C)n1cc(C2=C(O)C(=O)C(c3cn(C(C)(C)C=C)c4ccccc34)=C(O)C2=O)c2ccccc21")
"96.3% (inactive)"
>>> reported_measurement("O=C(O)C1CSC(c2ccccc2)N1 (configuration not stated)")
"104% (inactive)"
>>> reported_measurement("Cc1cc2c3ccc(C)[n+](C)c3ccc2n1C")
"16.8% (inactive)"
>>> reported_measurement("O=C(O)CC1=CCCCC1")
"96.1% (inactive)"
>>> reported_measurement("Cc1ccc[n+](CCC(N)=O)c1")
"110% (inactive)"
>>> reported_measurement("S=c1nc2[nH]c3ccccc3c2n[nH]1")
"102% (inactive)"
>>> reported_measurement("CN(C)CCOC(=O)Nc1ccc(Cc2ccc(NC(=O)OCCN(C)C)cc2)cc1")
"68.3% [100 µM] (inactive)"
>>> reported_measurement("C=CCC(O)C=C (configuration not stated)")
"104% (inactive)"
>>> reported_measurement("CN(C)c1ccc2nc3ccc(=[N+](C)C)cc-3oc2c1")
"63.2% (inactive)"
>>> reported_measurement("COC1OC(CO)C(OC)C(O)C1O (configuration not stated)")
"104% (inactive)"
>>> reported_measurement("O=S(Cc1ccccc1)/C(=C/NC(=S)Nc1ccccc1)c1ccccc1 (configuration not stated)")
"97.6% (inactive)"
>>> reported_measurement("O=C1CSc2ccccc2N1")
"117% (inactive)"
>>> reported_measurement("CC(=O)OCC1OC(n2cnc3c(=S)nc(N)[nH]c32)C(OC(C)=O)C1OC(C)=O (configuration not stated)")
"79.4% (inactive)"
>>> reported_measurement("Cc1ccc(/C=N/NC(N)=S)s1")
"113% (inactive)"
>>> reported_measurement("O=C(CCCl)OCCOc1ccccc1")
"116% (inactive)"
>>> reported_measurement("CC1CCC(C)(C)c2ccccc21 (configuration not stated)")
"105% (inactive)"
>>> reported_measurement("COC(=O)c1ccc([N+](=O)[O-])c(C)c1")
"86.3% (inactive)"
>>> reported_measurement("Cc1cc(CO)c(O)c(CO)c1")
"94.7% (inactive)"
>>> reported_measurement("C/C(=N\\N=C(/C)c1cccc([N+](=O)[O-])c1)c1cccc([N+](=O)[O-])c1")
"46.6% (inactive)"
